PBM binding z-score overview
Tested on: RXRa homodimer (NR concentration 180 nM)
assay-protocol: PBM binding z-score (relative to random genomic background probes); higher = stronger binding; sequences stand for … in GC…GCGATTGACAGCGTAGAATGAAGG
Just the number, please, no unit after it.

For orientation, consider the following solved cases.
sequence-code | PBM binding z-score
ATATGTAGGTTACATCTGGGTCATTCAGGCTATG | 2.38
GCGAGTGGGGCATCAGCAGGTTACCATAACTTAA | 0.32
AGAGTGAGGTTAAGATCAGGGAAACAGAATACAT | 2.52
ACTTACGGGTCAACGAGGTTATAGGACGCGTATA | 6.33
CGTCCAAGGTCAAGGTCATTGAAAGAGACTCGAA | 7.4
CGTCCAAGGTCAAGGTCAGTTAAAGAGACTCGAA | 6.66
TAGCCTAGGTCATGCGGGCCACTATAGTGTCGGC | 3.23
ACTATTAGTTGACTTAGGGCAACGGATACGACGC | 0.497

Ask: API: value(readout= PBM binding z-score, system= RXRa homodimer (NR concentration 180 nM), query= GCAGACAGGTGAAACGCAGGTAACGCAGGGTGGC )
Result: 0.641

Ask: Query the reported PBM binding z-score for RXRa homodimer (NR concentration 180 nM); item: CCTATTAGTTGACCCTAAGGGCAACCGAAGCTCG
Result: 5.73

Ask: What value of PBM binding z-score on RXRa homodimer (NR concentration 180 nM) does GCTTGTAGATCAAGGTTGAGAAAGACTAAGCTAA have?
Result: -0.32

Measured values drawn from the supplement of paper PMC6555819 for this set.
